- Test system: HOP-92 NSCLC
- assay-overview: NCI tumour cell line growth inhibition, 48 h
metric: TGI (µM)
One number for each entry, in µM.

Example results:
| smiles-input | TGI, µM |
| --- | --- |
| CCCCCCCCCCCC(=O)CC(=O)c1c(O)cccc1O | 39 |
| CC1=C(CCCNS(C)(=O)=O)C2=C(C)C3(CC3)[C@@](C)(O)C(=O)C2=C1 | 1.41 |
| COc1ccc(/C(=C2\O[C@@H]([C@H]3COC(C)(C)O3)[C@H]3OC(C)(C)O[C@@H]23)c2cc(OC)c(OC)c(OC)c2)cc1O | 31.8 |

With those in mind, consider the next compound.
Recorded TGI of CCOC(=O)c1csc(NC(=O)CCN(CC)CC)n1 , please. 69.3

---

- Tested on: LOX IMVI melanoma
- assay-overview: NCI tumour cell line growth inhibition, 48 h
Would you mind telling me the reported TGI of each entry?

| molecule | metric | result |
| --- | --- | --- |
| N#CC1(Cc2ccc(N)cc2)c2ccccc2C=CN1C(=O)c1ccccc1 (stereo not given) | TGI | > 100 µM |
| NC(C(F)(F)F)(C(F)(F)F)P(=O)(Cc1ccccc1)Cc1ccccc1 | TGI | > 100 µM |
| COc1ccc2[nH]c(O)c(/C=c3/cc4c(c(-c5cc(OC)c(OC)c(OC)c5)n3)=Nc3ccccc3-4)c2c1 | TGI | > 100 µM |
| COc1ccc(OC)c(NC(=O)C(=O)C(C(C)=O)c2nc3ccc(Cl)cc3[nH]c2=O)c1 (stereo not given) | TGI | > 50 µM |

With those in mind, consider the next molecule.
Recorded TGI of CCOC(=O)NC(=O)c1cn(C2OC(COC(=O)CCCCCCCCC(=O)OCC3OC(n4cc(C(=O)NC(=O)OCC)c(=O)[nH]c4=O)C(O)C3O)C(O)C2O)c(=O)[nH]c1=O (stereo not given) , please. > 100 µM

---

- Test system: RXF 393 renal
- assay-overview: NCI tumour cell line growth inhibition, 48 h
metric: TGI

Example results:
| molecule | result |
| --- | --- |
| O=C(Nc1ccc(N2CCNCC2)cc1)c1[nH]ncc1Nc1cc(Oc2ccccc2)ncn1 | 3.33 µM |
| Cc1nc2c(sc(=S)n2-c2ccccc2)c2nc3ncccc3n12 | > 100 µM |
| CCOP(=O)(OCC)/C(C#N)=C/c1cnc(-c2ccccc2)[nH]1 | > 100 µM |
| COc1cc2c(cc1OC)C1=Cc3cc(OC)c(OC)cc3C(C)N1C=C2 (centres undefined) | > 100 µM |

Hi! Can you tell me TGI for each of these molecules?
1. CCCCN1C(=O)CC2[C@@H]3CCc4cc(OC(C)=O)ccc4C3CC[C@]2(C)C1=O (some centres undefined)
2. CCOC(=O)NC(=O)c1cn(C2OC(COC(=O)CCCCCCCCC(=O)OCC3OC(n4cc(C(=O)NC(=O)OCC)c(=O)[nH]c4=O)C(O)C3O)C(O)C2O)c(=O)[nH]c1=O (centres undefined)
3. CC(C)OP(=O)(OC(C)C)c1c(Nc2ccccc2)n[nH]c1N
4. O=C1/C(=C/c2ccc(Br)cc2)C=C(c2ccccc2)N1CCc1ccccc1
5. N#CC1(Cc2ccc(N)cc2)c2ccccc2C=CN1C(=O)c1ccccc1 (centres undefined)
6. N#CSCC1CC(O)(c2ccccc2)C(c2ccccc2)C(c2ccc(Cl)cc2)O1 (centres undefined)
7. COc1cnc2cc(C(=O)O)c3c([N+](=O)[O-])cccc3c2c1

1. > 10 µM
2. > 100 µM
3. > 100 µM
4. 3.78 µM
5. > 100 µM
6. 3.24 µM
7. > 100 µM

Hi! Can you tell me TGI for each of these molecules?
1. COC(=O)c1cc2c3ccccc3[nH]c2c2ncccc12
2. CCOC(=O)c1csc(NC(=O)CCN(CC)CC)n1
3. Nc1ccn(C2O[C@H](CO)[C@@H](O)[C@@H]2O)c(=O)n1 (some centres undefined)
4. O=C1/C(=C/c2ccc(Cl)cc2Cl)N=C(c2ccccc2)N1Cc1ccco1
5. Cc1nnc2n1N=C(c1cc(F)c(Cl)cc1Cl)/C(=C/c1ccc(Cl)cc1)S2
6. COc1ccc2[nH]c(O)c(/C=c3/cc4c(c(-c5cc(OC)c(OC)c(OC)c5)n3)=Nc3ccccc3-4)c2c1
7. O=C1CNCCCN2CCN(CCCNCC(=O)Nc3ccc(cc3)S(=O)(=O)c3ccc(cc3)NC(=O)CNCCCN3CCN(CCCNCC(=O)Nc4ccc(cc4)S(=O)(=O)c4ccc(cc4)N1)CC3)CC2

1. > 100 µM
2. > 100 µM
3. > 100 µM
4. 51.8 µM
5. 40.5 µM
6. 41.9 µM
7. > 70.2 µM

Recorded TGI of COc1ccc(C2Oc3c(cc(O)c(OC)c3C)[C@@H]2C)cc1OC (some centres undefined) , please. > 100 µM
